List of pIC50 values.
Target: NMDA-receptor subtype 2B (Rattus norvegicus, UniProt P35439+Q00960)
Construct: Membranes were prepared by homogenization of the whole brain minus cerebellum and medulla oblongata; from tissue; host or cells: rat whole brain minus cerebellum and medulla oblongata, membrane preparation
Sequence (Q00960 27-1482, other chains not shown): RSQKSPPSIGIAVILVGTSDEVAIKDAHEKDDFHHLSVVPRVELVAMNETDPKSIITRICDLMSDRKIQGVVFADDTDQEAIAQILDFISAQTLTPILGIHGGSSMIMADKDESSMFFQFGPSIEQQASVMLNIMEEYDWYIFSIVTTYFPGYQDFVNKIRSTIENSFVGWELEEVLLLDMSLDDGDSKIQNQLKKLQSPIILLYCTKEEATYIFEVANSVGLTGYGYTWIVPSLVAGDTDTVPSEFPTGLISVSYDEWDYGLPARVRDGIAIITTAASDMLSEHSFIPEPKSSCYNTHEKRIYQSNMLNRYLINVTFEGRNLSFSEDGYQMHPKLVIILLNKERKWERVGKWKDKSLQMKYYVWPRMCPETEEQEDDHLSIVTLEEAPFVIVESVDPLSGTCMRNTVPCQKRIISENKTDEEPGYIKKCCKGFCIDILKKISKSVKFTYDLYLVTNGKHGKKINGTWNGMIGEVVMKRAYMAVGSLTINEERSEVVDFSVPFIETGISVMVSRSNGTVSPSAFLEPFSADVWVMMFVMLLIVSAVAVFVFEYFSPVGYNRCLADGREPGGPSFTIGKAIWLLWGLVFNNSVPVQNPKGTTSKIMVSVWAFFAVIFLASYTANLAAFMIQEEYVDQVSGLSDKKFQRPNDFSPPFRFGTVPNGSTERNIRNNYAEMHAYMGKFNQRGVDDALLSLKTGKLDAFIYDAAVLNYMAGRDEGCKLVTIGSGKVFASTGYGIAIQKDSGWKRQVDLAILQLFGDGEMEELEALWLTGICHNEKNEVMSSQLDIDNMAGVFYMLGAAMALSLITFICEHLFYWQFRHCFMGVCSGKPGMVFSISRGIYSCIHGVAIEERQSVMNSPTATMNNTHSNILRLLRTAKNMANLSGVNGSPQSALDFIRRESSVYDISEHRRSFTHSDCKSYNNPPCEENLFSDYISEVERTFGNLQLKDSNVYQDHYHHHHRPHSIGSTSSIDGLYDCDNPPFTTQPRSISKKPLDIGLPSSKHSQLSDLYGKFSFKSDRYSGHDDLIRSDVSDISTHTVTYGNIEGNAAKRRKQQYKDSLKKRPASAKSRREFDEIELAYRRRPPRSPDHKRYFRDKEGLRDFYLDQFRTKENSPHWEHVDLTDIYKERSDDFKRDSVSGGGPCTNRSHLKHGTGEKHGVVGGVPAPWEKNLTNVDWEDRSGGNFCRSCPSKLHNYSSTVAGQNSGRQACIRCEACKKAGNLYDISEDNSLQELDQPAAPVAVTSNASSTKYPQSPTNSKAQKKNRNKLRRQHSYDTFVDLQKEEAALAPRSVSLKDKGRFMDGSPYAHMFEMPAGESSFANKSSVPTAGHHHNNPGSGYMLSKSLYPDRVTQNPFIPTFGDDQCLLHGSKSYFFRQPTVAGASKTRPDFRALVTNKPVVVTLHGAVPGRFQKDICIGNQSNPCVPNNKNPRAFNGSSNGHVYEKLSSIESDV
Assay: 3H-Ro 25-6981 binding (displacement) on rat brain membranes
Settings: displacement of 5 nM 3H-Ro 25-6981, rat whole brain membranes (minus cerebellum and medulla oblongata), 2 hours at 4° C.
When answering, recall that pIC50 equals minus log10 of the concentration in mol/L, and write that number alone.

Some entries whose results are on file:
CCc1nccn1Cc1cn(-c2cccc(OC(F)F)c2)cn1.Cl.Cl 7.28
Cc1nccn1Cc1cn(-c2cccc(Cl)c2)cn1 7.55
Cc1nccn1Cc1cn(-c2ccc(F)c(Br)c2)cn1.Cl.Cl 7.85
Cc1cc(-n2cnc(Cn3cnc(C)c3C)c2)ccc1Cl.Cl.Cl 7.02
Cc1ccc(-n2cnc(Cn3ccnc3)c2)cc1Cl.Cl.Cl 7.32
CCc1nccn1Cc1cn(-c2cccc(SC)c2)cn1.Cl.Cl 7.70
Cc1ccc(-c2cncc(Cn3ccnc3C)c2)cc1Cl 7.10
CCCc1nccn1Cc1cn(-c2ccc(Cl)c(Cl)c2)cn1.Cl.Cl 8.15
Cc1nccn1Cc1cn(-c2ccc3ccccc3c2)cn1 8.00
CCc1nccn1Cc1cn(-c2cccc(Cl)c2)cn1.Cl.Cl 7.20

Exam item: Entry CCc1cccc(-n2cnc(Cn3ccnc3C)c2)c1.Cl.Cl has what pIC50?
Marked response: 7.85

Exam item: Follow-up item: CCNc1nccn1Cc1cn(-c2ccc(Cl)c(Cl)c2)cn1.Cl.Cl
Marked response: 7.96

Exam item: Follow-up item: Cc1nccn1Cc1cn(-c2ccc(Cl)cc2)cn1.Cl.Cl
Marked response: 7.21

Exam item: Follow-up item: Cc1nccn1Cc1cn(-c2cccc(OC(F)(F)F)c2)cn1.Cl.Cl
Marked response: 7.41

Exam item: Follow-up item: Cc1cc(-c2cnc(Cn3ccnc3C)n2C)ccc1F
Marked response: 7.08

Exam item: Follow-up item: Cc1cc(-n2cnc(Cn3ccnc3)c2)ccc1Cl.Cl.Cl
Marked response: 8.10

Exam item: Follow-up item: Cc1nccn1Cc1cn(-c2cccc(C(F)F)c2)cn1.Cl.Cl
Marked response: 7.10

Exam item: Follow-up item: CCc1nccn1Cc1cn(-c2ccc(Cl)c(C)c2)cn1.Cl.Cl
Marked response: 8.40

Exam item: Follow-up item: CCc1nccn1Cc1cn(-c2ccc(Cl)c(Cl)c2)cn1.Cl.Cl
Marked response: 7.92

Exam item: Follow-up item: CCc1nccn1Cc1cn(-c2ccc(F)c(Cl)c2)cn1.Cl.Cl
Marked response: 7.68

----------
Biological target: NMDA-receptor subtype 2B (Rattus norvegicus, UniProt P35439+Q00960)
Construct: Membranes were prepared by homogenization of the whole brain minus cerebellum and medulla oblongata
Assay: 3H-Ro 25-6981 binding (displacement) on rat brain membranes
Settings: displacement of 5 nM 3H-Ro 25-6981, rat whole brain membranes (minus cerebellum and medulla oblongata), 2 hours at 4° C.
List of pIC50 values.
When answering, recall that pIC50 equals minus log10 of the concentration in mol/L, and write that number alone.

Cc1nccn1Cc1cn(-c2ccc(F)c(C(C)(F)F)c2)cn1.Cl.Cl 8.09
CCc1cccc(-n2cnc(Cn3ccnc3CC)c2)c1.Cl.Cl 7.80
Cc1nccn1Cc1cn(-c2cccc(SC(F)(F)F)c2)cn1.Cl.Cl 7.42
Cc1nccn1Cc1cn(-c2ccc(F)c(Cl)c2)cn1.Cl.Cl 7.70

Exam item: Entry Cc1nccn1Cc1cncc(-c2cc(F)cc(C(F)(F)F)c2)c1 has what pIC50?
Marked response: 7.52

Where do the numbers come from? From patent US6667335B2.
